All figures here come from PubChem BioAssay (NCI).

test system: UO-31 renal; experiment: NCI-60 one-dose screen, 48 h (100 = growth as untreated, 0 = no growth, -100 = all killed); details: 10 µM unless noted
The panel holds about 83,000 compounds, 20% with a hit somewhere; the sample as a whole holds those more often.
Item-by-item account of growth

>  <molecule>
CCOC(=O)NNC(=S)Nc1ccccc1

>  <growth, %>
89.4

$$$$
>  <molecule>
O=S(=O)(NCCCNc1nccc(-n2ccc3cccnc32)n1)c1cccc(C(F)(F)F)c1

>  <growth, %>
104

$$$$
>  <molecule>
Cc1cc(C)n(-c2nnc3n2N=C(c2ccc(-c4ccccc4)cc2)CS3)n1

>  <growth, %>
46.6

$$$$
>  <molecule>
CC(C)NCCCNC1=C(Cl)C(=O)c2ccccc2C1=O

>  <growth, %>
81.9

$$$$
>  <molecule>
COc1cc(Nc2nc(N[C@H]3CCCC[C@@H]3N)nc3cc[nH]c(=O)c23)cc(OC)c1

>  <growth, %>
47.7

$$$$
>  <molecule>
CCCCCCCCCCCC(=O)NCCC[N+](C)(C)CC(=O)[O-]

>  <growth, %>
97.6

$$$$
>  <molecule>
C=C1CCC2C3(C)COC(c4c(OC)cccc4OC)OC3CCC2(C)C1C/C=C1/C(=O)OCC1O (configuration not stated)

>  <growth, %>
46.2

$$$$
>  <molecule>
CC(C)(C)n1cc(-c2ccnc(NCCCNS(=O)(=O)c3ccc(F)cc3)c2)c(-c2cccc(O)c2)n1

>  <growth, %>
59.4

$$$$
>  <molecule>
COc1cc(NCCCCCN)c2ncccc2c1

>  <growth, %>
86.9

$$$$
>  <molecule>
COc1cc(/C=C/c2cc(/C=C/c3ccc(O)c(OC)c3)n(C(N)=O)n2)ccc1O

>  <growth, %>
-22.1

$$$$
>  <molecule>
N=C(N)c1ccc(-c2ccc(-c3ccc4ccccc4c3)s2)cc1

>  <growth, %>
84.6

$$$$
>  <molecule>
COC(=O)c1nc(-c2ccccc2)oc1S(=O)(=O)N1CCN(c2cccc(Cl)c2)CC1

>  <growth, %>
62.9

$$$$
>  <molecule>
COc1ccc(C2C(C#N)=C(N)Oc3c2ccc2ccccc32)cc1 (configuration not stated)

>  <growth, %>
38.8

$$$$
>  <molecule>
COc1ccc(-n2c(=O)sc3c(Cl)nc(C)nc32)c(OC)c1

>  <growth, %>
-23.2

$$$$
>  <molecule>
O=c1cc(Cc2ccc([N+](=O)[O-])cc2)[nH]c(=O)[nH]1

>  <growth, %>
67

$$$$
>  <molecule>
CN(C)CCCC(C#N)c1ccccc1 (configuration not stated)

>  <growth, %>
104

$$$$
>  <molecule>
CCN(CC)CCC(CNc1ccnc2cc(Cl)ccc12)c1ccccc1 (configuration not stated)

>  <growth, %>
15.2

$$$$
>  <molecule>
COc1cc(/C=C/C(=O)c2c(C)nc3ccccc3c2C)ccc1OCCCCOc1cc2c(cc1OC)C(=O)N1CCC[C@H]1C=N2

>  <growth, %>
-93.9

$$$$
>  <molecule>
COc1cc(C2NN=C3c4ccccc4CCC32)cc(OC)c1OC (configuration not stated)

>  <growth, %>
41.4

$$$$
>  <molecule>
COc1ccc(C2CC(c3ccc(OC)cc3OC)=NN2c2ccc(S(N)(=O)=O)cc2)cc1 (configuration not stated)

>  <growth, %>
86.8

$$$$
>  <molecule>
Cc1ccc(/C=C2\CN(C(=O)CCN3CCC(=NO)CC3)C/C(=C\c3ccc(C)cc3)C2=O)cc1

>  <growth, %>
-86

$$$$
>  <molecule>
C[n+]1c(/C=C/c2c(O)ccc3ccccc23)ccc2ccccc21

>  <growth, %>
22.2

$$$$
